Give measured protein stability index for each item. Keep answers brief.
B1: RTN1 (parent)
chain: VVAYLALAALSATISFRIYKSVLQ

- Variants of: B1
- protocol_notes: protein stability index of a GFP-peptide fusion (GPS, HEK-293T) (PSI 1-6); higher = more stable;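 further: lentivirally expressed fusions sorted by FACS into six bins by GFP to DsRed ratio, PSI derived from sequencing read proportions per bin multiplied by bin number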
- stated_conditions: c terminus: a fixed tail appended
Give bare numbers.

Provide reported protein stability index for each item, in the same order as listed.
1. VVAYLALTALSATISFRIYKSVLQ [A8T]
2. VVAYLALAALSATISFRIYDSVLQ [K20D]
3. VVAYLALAALSATISFRIYKHVLQ [S21H]
4. VVAYLALAALMATISFRIYKSVLQ [S11M]
5. VCAYLALAALSATISFRIYKSVLQ [V2C]
6. VVAYLALAALSATISFRIYKSVLK [Q24K]
7. VVAYLALAALSAKISFRIYKSVLQ [T13K]
8. VVAYLALAALSATISFRIYKAVLQ [S21A]

-- reply
[2.32, 2.89, 1.9, 2.45, 3.71, 2.45, 2.77, 1.89]

Hi! Can you tell me protein stability index for each of these variants?
1. VVAYLALAALSATISARIYKSVLQ [F16A]
2. VVAYLALAALSATISFFIYKSVLQ [R17F]
3. VVAYLALAALSATKSFRIYKSVLQ [I14K]
4. VVAYRALAALSATISFRIYKSVLQ [L5R]
5. VVAYLAAAALSATISFRIYKSVLQ [L7A]
6. VVAYGALAALSATISFRIYKSVLQ [L5G]
7. VVAYLALAALSATIFFRIYKSVLQ [S15F]

-- reply
1. 2.88
2. 1.94
3. 1.96
4. 1.78
5. 3.97
6. 1.95
7. 1.27
